# STUDY SYSTEM: 5-hydroxytryptamine receptor 1A (Rattus norvegicus) (UniProt P19327)
# Sequence (P19327 whole entry): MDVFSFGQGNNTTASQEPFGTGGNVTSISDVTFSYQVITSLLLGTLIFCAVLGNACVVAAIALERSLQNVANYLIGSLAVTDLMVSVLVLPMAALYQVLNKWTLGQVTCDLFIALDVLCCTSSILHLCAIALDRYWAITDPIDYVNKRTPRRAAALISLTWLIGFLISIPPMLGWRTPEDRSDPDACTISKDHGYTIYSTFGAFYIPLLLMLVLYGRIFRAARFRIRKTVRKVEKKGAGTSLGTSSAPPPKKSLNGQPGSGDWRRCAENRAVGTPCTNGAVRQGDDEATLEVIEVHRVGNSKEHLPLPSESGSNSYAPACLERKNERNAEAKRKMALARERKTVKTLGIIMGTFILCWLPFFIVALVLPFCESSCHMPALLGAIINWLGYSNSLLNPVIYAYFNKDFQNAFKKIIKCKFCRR
# TEST DESCRIPTION: Displacement of [3H]8-OH-DPAT from 5HT1A receptor in rat hippocampal membrane at 10^-6 M by radioligand binding assay
# Type: cell membranes
# CONDITION DETAILS: Hippocampus
OUTCOME MEASURE: inhibition (%)

CPD SMILES: COc1cccc(N2CCN(CCCn3cnc4c(cnc5ccccc54)c3=O)CC2)c1
inhibition [%]: 89

I: O=c1c2cnc3ccccc3c2ncn1CCCN1CCN(c2ccccc2Cl)CC1
II: O=c1c2cnc3ccccc3c2ncn1CCN1CCN(c2ccc(Cl)cc2)CC1
[ask] Determine, for I and II , which has the greater value of inhibition. Indicate your choice by writing its label.
[reply] I
(I: 87%, II: 11%)

Attribution: ChEMBL document CHEMBL1811770
